Test system: Trypanosoma cruzi
ASSAY PROCEDURE: Trypanosoma cruzi phosphomannomutase and mannose-1-phosphate guanylyltransferase assay
Type: functional
Design: scale not given: direction of the effect not stated beside the values
ASSAY CONDITIONS: 10 µM
MEASURED PARAMETER: Percent Effect (%)
Numbers only, in %.

Take a look at these entries with their results.
[[record]]
compound = "c1cnn(CC2CN(Cc3noc(C4CC4)n3)CCO2)c1 (centres undefined)"
measured_parameter = "Percent Effect"
number = 1.81

[[record]]
compound = "CC(=O)N1N=C(c2ccccc2)OC1C(=O)NCCC1=CCCCC1 (centres undefined)"
measured_parameter = "Percent Effect"
number = -0.986


Dear reader, for each entry below, please note its Percent Effect.
1. O=C(NCCNc1ncccn1)C1CCN(C(=O)C2CC2)CC1
2. COC(=O)C(NC(=O)COC1CCCC1)c1cc(F)ccc1F (centres undefined)
3. CC1CCCN(Cc2csc(-c3ncccn3)n2)CC1 (centres undefined)
4. Cc1nc(-c2ccsc2)ccc1C(=O)NCCC1CCCO1 (centres undefined)
5. CCN(Cc1cccc2c1OCO2)C(=O)NC1CC1
6. CC(C)CNC(=O)c1ccc2nnc(C3CCN(S(C)(=O)=O)C3)n2c1 (centres undefined)
7. CCn1nc2c(cc1=O)CN(CC(=O)Nc1nc(C)c(C)s1)CC2
8. CCN(CC1CCOC1)C(=O)Nc1ccc(-n2cncn2)nc1 (centres undefined)

stdout:
1. -4.55
2. 5.06
3. 8.26
4. 9.77
5. 1.68
6. -1.27
7. -9.7
8. -12.7

Please supply Percent Effect for each of the following items, keeping them in order.
1. CCOCC1CN(Cc2cnn(C)c2)Cc2nn(C)cc21 (centres undefined)
2. Cc1ccc(-c2nc(CN3CCn4c(nnc4C4CC4)C3)cs2)o1
3. CC(C)c1nc(C(=O)N2CCCC(n3cncn3)C2)c[nH]1 (centres undefined)
4. CCN(C(=O)COC)C(c1cccnc1)c1cc(C)cc(C)c1 (centres undefined)

stdout:
[-5.36, -0.0939, -0.308, -11.3]

Please state Percent Effect for every compound in the list that follows.
1. Cc1csc(Nc2nccnc2C2CCCN2C(=O)C(C)C)n1 (centres undefined)
2. CCO[C@@H]1CO[C@@]2(CCCN(S(=O)(=O)c3cccnc3)C2)C1
3. CN1CCN(c2ncnc3c2c(C(=O)NC2CC2)c2ccccn23)CC1
4. COc1ccccc1-c1cc(C(F)(F)F)c2c(C)nn(CC(=O)O)c2n1
5. CCC(CC)C(CNC(=O)Nc1cc(C)nn1C)N1CCOCC1 (centres undefined)
6. CC(=O)N1CCC2(CCN(C(=O)c3ccc(C)c(C(F)(F)F)c3)CC2)C1
7. Cc1ccc(C(N)c2cccc(S(C)(=O)=O)c2)cc1 (centres undefined)
8. CCN1CC(C(=O)NCc2ccnc(-n3ccnc3C)c2)CC1=O (centres undefined)

stdout:
-4.34
-4.97
-5.16
-2.56
9.54
-7.69
-1.81
0

# batch: return Percent Effect for each of the 2 compounds below
1. CN1CCCC2(CCN(C(=O)CCn3cncn3)C2)C1=O (centres undefined)
2. O=C(c1cc2cc(F)ccc2[nH]1)N1CCC(Nc2cccnn2)CC1

stdout:
1. 4.17
2. -8.21

---

TARGET OR TEST SYSTEM: Protein translocase subunit SecA (Escherichia coli (strain K12)) (UniProt P10408)
Sequence (P10408 whole entry): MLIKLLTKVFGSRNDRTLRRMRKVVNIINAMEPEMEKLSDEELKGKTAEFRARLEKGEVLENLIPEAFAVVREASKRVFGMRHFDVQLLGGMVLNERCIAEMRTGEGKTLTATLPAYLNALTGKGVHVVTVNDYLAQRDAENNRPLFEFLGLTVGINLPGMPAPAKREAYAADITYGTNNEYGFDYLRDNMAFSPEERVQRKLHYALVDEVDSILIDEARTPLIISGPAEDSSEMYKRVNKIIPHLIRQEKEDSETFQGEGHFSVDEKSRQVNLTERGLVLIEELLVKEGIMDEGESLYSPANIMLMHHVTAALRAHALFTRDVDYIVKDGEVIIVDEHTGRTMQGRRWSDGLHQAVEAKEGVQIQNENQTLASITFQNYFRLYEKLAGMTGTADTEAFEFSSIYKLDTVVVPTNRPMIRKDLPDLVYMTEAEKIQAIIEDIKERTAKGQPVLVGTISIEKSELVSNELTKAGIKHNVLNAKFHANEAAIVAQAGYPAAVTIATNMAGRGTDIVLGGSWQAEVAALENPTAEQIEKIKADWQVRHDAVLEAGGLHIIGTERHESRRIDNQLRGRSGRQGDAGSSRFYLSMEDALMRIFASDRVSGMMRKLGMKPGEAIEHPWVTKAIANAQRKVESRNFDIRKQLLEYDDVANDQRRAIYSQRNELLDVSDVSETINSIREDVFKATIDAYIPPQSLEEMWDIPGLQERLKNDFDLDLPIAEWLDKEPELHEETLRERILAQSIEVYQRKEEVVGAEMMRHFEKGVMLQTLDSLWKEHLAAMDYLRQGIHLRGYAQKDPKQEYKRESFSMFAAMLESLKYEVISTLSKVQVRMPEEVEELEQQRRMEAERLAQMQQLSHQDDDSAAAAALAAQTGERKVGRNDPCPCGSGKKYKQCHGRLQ
ASSAY PROCEDURE: Assay to Identify E. coli SecA ATPase Inhibitors
Assay type: functional
Set-up: scale not given: direction of the effect not stated beside the values
ASSAY CONDITIONS: 30 µM
Potency and affinity values are given separately.
Record form. Attribute: Percent Effect. Fill in for each entry.
Give bare numbers, in %.

[[record]]
compound = "COc1cc(C(=O)N2CCCS2(=O)=O)ccc1C"
number = -4.9

[[record]]
compound = "CNC(=O)CS(=O)(=O)Cc1coc(-c2ccc(OC)cc2)n1"
number = -3.22

[[record]]
compound = "COCc1cccc(NS(=O)(=O)c2cc(C(=O)O)cs2)c1"
number = -3.18


Go through the list and state Percent Effect for each entry.
1. CC1CCN(C(=O)c2cccc3ncccc23)CC1
2. Cc1cccc(-c2noc(CN3CC(n4cc(C)cn4)C3)n2)c1
3. Cc1nc(C)n(CC2CCCN2Cc2cscn2)n1 (configuration not stated)
4. COCCN1CCC(CNC(=O)c2cc(C)cc(C)c2)C1 (configuration not stated)
5. CN(Cc1ccc(F)cc1)C(=O)CN1CCCC(Cn2cncn2)C1 (configuration not stated)

stdout:
-2.07
-0.775
-4.14
-6.49
-2.63

State recorded Percent Effect for all listed compounds.
1. c1cnn(CC2CN(Cc3ccc(-n4ccnc4)cc3)CCO2)c1 (configuration not stated)
2. CNc1cncc(C2CCCN2C(=O)c2ccc3oc(C)cc3c2)n1 (configuration not stated)
3. CC(=O)c1cccc(OCC(=O)NS(=O)(=O)c2ccc(C)s2)c1

stdout:
-2.02
-2.25
-6.93

stdin: What Percent Effect value was documented for this compound, Cc1cnn(C2CCCN(C(=O)c3cnc4ccccc4n3)C2)c1 (configuration not stated) ?
stdout: -3.93

---

TARGET OR TEST SYSTEM: Sialic acid-binding Ig-like lectin 9 (Homo sapiens) (UniProt Q9Y336)
Sequence (Q9Y336 whole entry): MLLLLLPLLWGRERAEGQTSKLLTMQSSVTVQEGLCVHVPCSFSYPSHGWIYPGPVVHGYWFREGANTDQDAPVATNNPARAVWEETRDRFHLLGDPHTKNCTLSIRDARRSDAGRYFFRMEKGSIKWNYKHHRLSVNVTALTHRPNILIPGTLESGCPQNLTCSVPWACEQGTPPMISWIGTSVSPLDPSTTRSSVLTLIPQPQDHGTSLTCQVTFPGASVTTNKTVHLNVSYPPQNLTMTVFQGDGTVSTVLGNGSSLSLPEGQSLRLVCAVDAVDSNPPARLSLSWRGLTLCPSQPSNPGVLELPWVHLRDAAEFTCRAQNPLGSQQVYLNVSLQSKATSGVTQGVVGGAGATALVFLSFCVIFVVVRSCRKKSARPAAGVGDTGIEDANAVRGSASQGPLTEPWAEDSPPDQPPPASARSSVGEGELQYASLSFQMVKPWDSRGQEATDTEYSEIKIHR
ASSAY PROCEDURE: Hs-Siglec9 ALPHAscreen SOP 20170721
Set-up: scale not given: direction of the effect not stated beside the values
ASSAY CONDITIONS: 10 µM
Field: Percent Effect. Provide a value for each of the compounds that follow.
Give bare numbers, in %.

Hi team, please reply with Percent Effect for each item in this list.
1. Cc1cc(C)n(-c2cncc(NCCNC(=O)C(C)C)n2)n1
2. CCC[C@@H]1CN(S(=O)(=O)c2ccc(C)c(F)c2)C[C@H]1N(C)C
3. Cc1nc(CN2CCCC(CCc3c(F)cccc3F)C2)c[nH]1 (stereo unspecified)
4. Cc1nc(C)n(CC2CCCCN2CC(=O)NC2CCOCC2)n1 (stereo unspecified)
5. CCC(=O)N1CCc2nc3cc(OC)c(OC)cc3c(=O)n2CC1

stdout:
[-1.97, -1.02, 23.7, 5.39, 12.5]

Value sought for every listed compound: Percent Effect.
1. Cn1ccnc1CN1CCN(Cc2cc(C#N)ccc2F)CC1
2. CN(CC1CN(Cc2cn3ccsc3n2)CCO1)c1cccnn1 (stereo unspecified)
3. COc1ccc(CCN2CCCC(Cn3nc(C)nc3C)C2)cc1 (stereo unspecified)

stdout:
1. -1.18
2. -12.4
3. 1.01

I have 3 compounds here; please give me Percent Effect for each one.
1. c1csc(CN2CCO[C@H]3[C@H](OCCN4CCCC4)CC[C@@H]32)n1
2. CC(NC(=O)c1cccs1)C(=O)NCc1ccccc1CN1CCCC1 (stereo unspecified)
3. CC(C)n1ccnc1C1CCN(Cc2ccc(Cl)c(F)c2)CC1

stdout:
1. 16
2. 2.04
3. 15.3

---

Organism: Homo sapiens
ASSAY PROCEDURE: To identify inhibition of the IFN signalling (Jak-Stat) pathway via expression of an eGFP reporter gene under the control of an IFN-stimulated response element (ISRE) containing MxA promoter.
Type: functional
Parameters: scale not given: direction of the effect not stated beside the values
ASSAY CONDITIONS: 30 µM
For each of the molecules below, state its Percent Effect.
Numbers only, in %.

[[record]]
molecule = "CCN(Cc1cccc2c1OCO2)C(=O)NC1CC1"
measured_parameter = "Percent Effect"
number = 3.66

[[record]]
molecule = "CCC(NC(=O)C1CCN(S(=O)(=O)N(C)C)CC1)c1ccc(C)c(C)c1 (stereo not drawn)"
measured_parameter = "Percent Effect"
number = -10.2

[[record]]
molecule = "COc1ccc(CN2CC[C@H]3[C@H]2CCN3C(=O)c2cnn(C)c2)cc1"
measured_parameter = "Percent Effect"
number = 9.65

[[record]]
molecule = "Cc1cc(C)n(Cc2ccc(C(=O)NCCN3CCOCC3)cc2)n1"
measured_parameter = "Percent Effect"
number = 5.69

[[record]]
molecule = "O=C(NCCc1ccccc1)C1CCCN(c2ccc3nncn3n2)C1 (stereo not drawn)"
measured_parameter = "Percent Effect"
number = -5.46


Hi! Can you tell me Percent Effect for each of these molecules?
1. Cc1nn(C)c(N(C)C)c1CNCc1ccccc1CN(C)C
2. CS(=O)(=O)CC(=O)N1C[C@@H]2COC[C@]2(c2nnc(C3CC3)o2)C1
3. CN(C)C(=O)CS(=O)(=O)Cc1cc(Cl)c2c(c1)OCCCO2

stdout:
1: -0.0229; 2: 19.8; 3: 3.48

Field: Percent Effect. Fill in for each record below.
1. O=C(Cc1ccc2c(c1)OCCO2)NCCc1nnc2n1CCC2
2. CCC(=O)NCCc1cc(N2CCN(C(C)=O)CC2)nc(C2CC2)n1

stdout:
1. 2.82
2. 16.2

Would you mind giving Percent Effect for every molecule in the list below?
1. CS(=O)(=O)NC1CCCN(C(=O)NCc2cc[nH]n2)C1 (stereo not drawn)
2. CCOCC1CN(C)Cc2cnn(CC3CCCC3)c21 (stereo not drawn)
3. CCN1C(=O)CCCC12CCCN(C(=O)c1conc1C)C2 (stereo not drawn)
4. CCc1nc(C2CCCN2C(=O)CCc2cccs2)no1 (stereo not drawn)
5. CC(C)NC(=O)N1CCN(C(=O)N(C)C)CC2(CC(=O)N(C)C2)C1 (stereo not drawn)
6. CCc1nccn1C1CCCN(C(=O)c2cnn(C)c2C2CC2)C1 (stereo not drawn)
7. O=C(NCc1nn(-c2ccccc2)c2c1CCC2)NC1CC1

stdout:
1. -0.514
2. -29.3
3. 14
4. 3.17
5. 7.62
6. 23.9
7. -3.46

Give Percent Effect for each of the items listed below.
1. Cn1cc(C(=O)NC2CCN(C(=O)NCC3CCSCC3)CC2)cn1
2. Cc1nnc(N2C[C@@H](OCCCn3cccn3)[C@H]3OCCC[C@H]32)s1

stdout:
[24.4, -5.83]
